- Test system: Human thrombin (Homo sapiens)

# Input smiles, IC50
measured = [
    ("Nc1cccc(-c2c(Cl)nc(NC3CCC3)c(=O)n2CC(=O)NCc2ccc(-c3noc(=O)[nH]3)cc2)c1", "> 30 µM"),
    ("Nc1cccc(-c2c(Cl)nc(NC3CCC3)c(=O)n2CC(=O)NCc2ccc3ccnc(N)c3c2)c1", "> 30 µM"),
    ("COC(=O)c1cccc(Sc2ccc(N)cc2-c2c(Cl)nc(NC(C)C)c(=O)n2CC(=O)NCc2ccc(C(=N)N)cc2)c1", "13 µM"),
    ("Nc1cccc(-c2c(Cl)nc(NC3CCC3)c(=O)n2CC(=O)NCc2ccc3c(N)nsc3c2)c1", "> 30 µM"),
]

====

Below: a set of entries, each annotated with reported % Inhibition TF-VIIa (100 µM).
- Test system: recombinant soluble tissue factor and recombinant human factor VIIa (TF-VIIa) (Homo sapiens)
- Construct: conversion of coagulation factor VII to VIIa by Xa; purchased American Diagnostica, Greenwich Conn; host or cells: VIIa purchased; soluble TF made in house in E. coli
- Sequence (P08709 61-212 limits assumed): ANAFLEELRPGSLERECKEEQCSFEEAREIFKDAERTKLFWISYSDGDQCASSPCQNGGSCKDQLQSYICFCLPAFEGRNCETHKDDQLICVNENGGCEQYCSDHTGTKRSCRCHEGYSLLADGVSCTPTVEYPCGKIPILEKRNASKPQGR
- Sequence (P08709 213-466 limits assumed): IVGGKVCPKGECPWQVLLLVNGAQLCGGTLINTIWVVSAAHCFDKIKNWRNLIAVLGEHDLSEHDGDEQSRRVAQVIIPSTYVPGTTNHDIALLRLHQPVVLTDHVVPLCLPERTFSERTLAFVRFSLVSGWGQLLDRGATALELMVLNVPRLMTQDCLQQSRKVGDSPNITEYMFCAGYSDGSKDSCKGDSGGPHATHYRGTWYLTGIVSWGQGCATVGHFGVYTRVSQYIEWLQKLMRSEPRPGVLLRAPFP
- Sequence (P13726 33-251 partner limits assumed): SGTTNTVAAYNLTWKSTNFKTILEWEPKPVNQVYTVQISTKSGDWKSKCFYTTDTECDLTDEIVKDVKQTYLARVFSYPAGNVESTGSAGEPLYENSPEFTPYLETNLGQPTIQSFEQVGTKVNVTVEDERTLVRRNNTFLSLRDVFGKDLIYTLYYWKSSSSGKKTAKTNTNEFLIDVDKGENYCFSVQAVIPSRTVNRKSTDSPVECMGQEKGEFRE
- Experiment summary: TF-VIIa Assay
- Type: biochemical
- Measurement parameters: inhibitor at 100 µM
Readout kind: % Inhibition TF-VIIa (100 µM)

# Molecule, Reported result
data = [
    ("Cc1c(Cl)nc(NCCc2cccnc2)c(=O)n1CC(=O)NCCc1ccncc1", "0%"),
    ("Cc1c(Cl)nc(NCCN2CCOCC2)c(=O)n1CC(=O)NCCc1ccncc1", "0%"),
    ("O=C(Cn1c(-c2ccc(Cl)cc2)c(Cl)nc(NCCc2ccncc2)c1=O)NCCc1ccncc1 [Example E-0022]", "0%"),
    ("O=C(Cn1c(-c2ccc3c(c2)OCO3)c(Cl)nc(NCCc2cccc(Cl)c2)c1=O)NCCc1ccncc1", "0%"),
    ("O=C(Cn1c(CCc2ccccc2)c(Cl)nc(NCCc2ccccc2)c1=O)NCCc1ccncc1", "0%"),
    ("O=C(Cn1c(Cc2ccccc2)c(Cl)nc(NCCc2cccnc2)c1=O)NCCc1ccncc1", "0%"),
    ("COc1ccc(-c2c(Cl)nc(NCCc3ccc(Cl)cc3)c(=O)n2CC(=O)NCCc2cccnc2)cc1", "4%"),
    ("O=C(Cn1c(-c2ccc(Cl)cc2)c(Cl)nc(NCCc2ccccc2)c1=O)NCCc1ccncc1 [Example E-0018]", "1%"),
]

====

- Test system: Human factor Xa (Homo sapiens)
- Sequence (P00742 41-179 limits assumed): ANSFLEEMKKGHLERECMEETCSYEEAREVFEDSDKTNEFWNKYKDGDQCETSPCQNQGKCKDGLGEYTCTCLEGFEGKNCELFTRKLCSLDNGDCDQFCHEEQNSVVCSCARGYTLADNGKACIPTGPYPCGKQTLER
- Sequence (P00742 235-488 limits assumed): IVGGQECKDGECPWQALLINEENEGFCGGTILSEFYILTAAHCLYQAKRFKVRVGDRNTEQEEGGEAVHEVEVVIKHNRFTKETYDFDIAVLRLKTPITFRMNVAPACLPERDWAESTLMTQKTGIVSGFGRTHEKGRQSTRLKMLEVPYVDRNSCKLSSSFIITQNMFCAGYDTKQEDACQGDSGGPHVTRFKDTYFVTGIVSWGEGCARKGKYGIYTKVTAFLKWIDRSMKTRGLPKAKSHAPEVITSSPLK
- Experiment summary: Xa Assay
- Format: biochemical
- Parameters: purchased Enzyme Research Laboratories, South Bend Ind
- Measurement parameters: at 30 µM inhibitor
Readout kind: % Inhibition Factor Xa (30 µM) (%)

# Input smiles, Test system, Reported result
records = [
    ("N=C(N)c1ccc(CNC(=O)Cn2c(-c3ccccc3)c(Cl)nc(NCC(c3ccccc3)c3ccccc3)c2=O)cc1", "Human factor Xa (Homo sapiens)", 13),
    ("Nc1cccc(-c2c(Cl)nc(NC3CCC3)c(=O)n2CC(=O)NCc2ccc3[nH]cnc3c2)c1", "Human factor Xa (Homo sapiens)", 5),
    ("N=C(N)c1ccc(CNC(=O)Cn2c(-c3ccccc3)c(Cl)nc(NCc3cc(F)ccc3F)c2=O)cc1", "Human factor Xa (Homo sapiens)", 9),
    ("N=C(N)c1ccc(CNC(=O)Cn2c(-c3c(Cl)cccc3Cl)c(Cl)nc(NCc3ccccc3)c2=O)cc1", "Human factor Xa (Homo sapiens)", 0),
    ("Nc1n[nH]c2cc(CNC(=O)Cn3c(-c4ccccc4)cnc(NCCc4ccccc4)c3=O)ccc12", "Human factor Xa (Homo sapiens)", 0),
]
